assay: Solubility of the compound in 10% 2-HPbetaCD/water solution; assay type: physicochemical; settings: 10% 2-HPbetaCD/water solution; read-out: solubility
MEASURED_ATTRIBUTE: solubility

Sample CC(C)c1n(Cc2ccc3ccccc3c2)cc[n+]1Cc1ccc2ccccc2c1.[Br-] — what was its solubility? > 4400 µg/mL

* * *

We begin with a simple list: items and their reported growth at 10 µM.
tested on: HOP-62; assay: Growth inhibition of human HOP62 cells assessed as cell growth at 10 uM after 24 hrs by SRB assay relative to control; format: functional; conditions: HOP-62, 24 h, read-out: Activity
Reply with just the number (in %).

Below, 3 compounds whose answers are already recorded.
LINE_NOTATION | DATA_VALUE
CCCCc1n(Cc2ccc3ccccc3c2)cc[n+]1Cc1ccc2ccccc2c1.[Br-] | -2.71
CCCc1n(Cc2ccc3ccccc3c2)cc[n+]1Cc1ccc2ccccc2c1.[Br-] | 5.82
Cc1n(Cc2ccc3ccccc3c2)cc[n+]1Cc1ccc2ccccc2c1.[Br-] | 18

Field: next compound
Sample CCc1n(Cc2ccc3ccccc3c2)cc[n+]1Cc1ccc2ccccc2c1.[Br-] — what was its growth at 10 µM? 11.9

meta.source: ChEMBL document CHEMBL4002637
